# Target Entity: GlyT2 I285F mutant (Rattus norvegicus, UniProt P58295, I285F)
# Construct: expressed in transfected cells; host or cells: COS7
# Sequence (P58295 1-799 I285F): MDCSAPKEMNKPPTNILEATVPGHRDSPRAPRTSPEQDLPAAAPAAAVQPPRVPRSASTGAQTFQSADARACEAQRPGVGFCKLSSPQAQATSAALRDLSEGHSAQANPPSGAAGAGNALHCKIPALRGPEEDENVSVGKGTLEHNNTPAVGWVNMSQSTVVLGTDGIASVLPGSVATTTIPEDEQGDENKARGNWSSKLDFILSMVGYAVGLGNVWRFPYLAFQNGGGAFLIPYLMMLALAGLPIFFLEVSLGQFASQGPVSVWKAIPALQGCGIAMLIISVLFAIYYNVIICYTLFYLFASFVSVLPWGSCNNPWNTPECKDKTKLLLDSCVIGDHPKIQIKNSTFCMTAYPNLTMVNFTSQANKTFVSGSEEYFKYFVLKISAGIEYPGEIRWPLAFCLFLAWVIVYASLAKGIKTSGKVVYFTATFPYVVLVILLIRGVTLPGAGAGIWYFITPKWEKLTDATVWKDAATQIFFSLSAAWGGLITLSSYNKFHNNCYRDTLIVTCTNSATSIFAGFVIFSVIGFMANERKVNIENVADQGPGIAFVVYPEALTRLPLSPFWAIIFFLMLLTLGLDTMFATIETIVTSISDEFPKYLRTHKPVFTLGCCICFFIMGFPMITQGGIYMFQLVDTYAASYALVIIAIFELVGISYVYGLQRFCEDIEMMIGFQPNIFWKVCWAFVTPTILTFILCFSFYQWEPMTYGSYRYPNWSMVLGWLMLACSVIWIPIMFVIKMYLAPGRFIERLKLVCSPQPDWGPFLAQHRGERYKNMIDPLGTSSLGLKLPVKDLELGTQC
# Protocol Summary: [3H]glycine transport by GlyT2 mutant in COS7 cells
# Type: cell-based
# Assay Context: read-out: IC50 (Table S1)
pIC50: −log10 of the molar value.
Property Measured: pIC50

> print(dat)
                                   molecule  value.measured
1  N[C@@H](COC(c1cccc(F)c1)c1ccccc1OCc1ccccc1)C(=O)O (stereo partly shown)            7.04
